target: plasma kallikrein (Homo sapiens); construct: from tissue; test: Neat human plasma assay, FXIIa contact pathway-activated, PFR-AMC substrate; type: biochemical; details: citrated human plasma 78% final, 10 nM human FXIIa, 100 μM PFR-AMC; read-out: Human Plasma Assay: IC90
Sequence (P03952 391-638 limits assumed): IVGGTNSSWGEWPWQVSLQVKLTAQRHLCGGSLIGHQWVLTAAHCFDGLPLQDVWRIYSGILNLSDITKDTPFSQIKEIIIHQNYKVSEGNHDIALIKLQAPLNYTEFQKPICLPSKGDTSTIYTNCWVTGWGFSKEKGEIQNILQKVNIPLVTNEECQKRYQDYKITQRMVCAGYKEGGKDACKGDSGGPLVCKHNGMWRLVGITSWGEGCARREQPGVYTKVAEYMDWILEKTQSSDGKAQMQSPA
Sequence (P03952 20-390 partner limits assumed): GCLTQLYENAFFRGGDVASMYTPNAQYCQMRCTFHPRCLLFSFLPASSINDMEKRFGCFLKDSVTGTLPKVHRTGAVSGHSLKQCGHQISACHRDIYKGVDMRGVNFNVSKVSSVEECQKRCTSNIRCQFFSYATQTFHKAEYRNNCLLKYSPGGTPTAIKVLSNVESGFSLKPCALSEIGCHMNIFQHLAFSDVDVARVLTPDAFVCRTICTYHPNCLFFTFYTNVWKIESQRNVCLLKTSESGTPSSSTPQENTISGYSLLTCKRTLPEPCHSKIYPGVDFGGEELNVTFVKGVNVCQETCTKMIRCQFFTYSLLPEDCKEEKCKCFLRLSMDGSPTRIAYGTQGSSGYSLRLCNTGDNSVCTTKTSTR
metric: IC90

O=C(Nc1cc(N2C[C@@H](O)C[C@@H]2c2cn3cc(C4CC4)ccc3n2)ncn1)[C@H]1C[C@@H]1c1nccc(Cl)n1 (relative stereo)    1.5 to 10 µM
Cc1nc(NC(=O)[C@H]2C[C@@H]2c2ncc(F)c(C)n2)cc(N[C@H](C)c2cn3cc(C4CC4)cc(N4CC(=O)N(C)C4=O)c3n2)n1 (relative stereo)    0.4 to 1.5 µM

Then there is this molecule:
Case Cc1ccnc([C@H]2C[C@@H]2C(=O)Nc2cc(NCc3cn4cc(C5CC5)cc(N5CC(=O)N(C)C5=O)c4n3)cc(C(F)(F)F)n2)n1 (racemic) , plasma kallikrein (Homo sapiens), IC90 recorded as 0.4 to 1.5 µM
